Listing of recorded Km by entry.
Substrate: tributyrin
Settings: pH 7; 25 °C
Please state the value followed by its unit.

// solved cases for Km follow
- unnamed (protein) MLDMPIDPVYYQLAEYFDSLPKFDQFSSAREYREAINRIYEERNRQLSQHERVERVEDRTIKGRNGDIRVRVYQQKPDSPVLVYYHGGGFVICSIESHDALCRRIARLSNSTVVSVDYRLAPEHKFPAAVYDCYDATKWVAENAEELRIDPSKIFVGGDSAGGNLAAAVSIMARDSGEDFIKHQILIYPVVNFVAPTPSLLEFGEGLWILDQKIMSWFSEQYFSREEDKFNPLASVIFADLENLPPALIITAEYDPLRDEGEVFGQMLRRAGVEASIVRYRGVLHGFINYYPVLKAARDAINQIAALLVFD: 50 µM
- unnamed (protein) MVLKQRANYLGFLIVFFTAFLVEAVPIKRQSNSTVDSLPPLIPSRTSAPSSSPSTTDPEAPAMSRNGPLPSDVETKYGMALNATSYPDSVVQAMSIDGGIRAATSQEINELTYYTTLSANSYCRTVIPGATWDCIHCDATEDLKIIKTWSTLIYDTNAMVARGDSEKTIYIVFRGSSSIRNWIADLTFVPVSYPPVSGTKVHKGFLDSYGEVQNELVATVLDQFKQYPSYKVAVTGHSLGGATALLCALDLYQREEGLSSSNLFLYTQGQPRVGDPAFANYVVSTGIPYRRTVNERDIVPHLPPAAFGFLHAGEEYWITDNSPETVQVCTSDLETSDCSNSIVPFTSVLDHLSYFGINTGLCT: 450 µM

Now examine the next entry.
[in] Consider the protein unnamed (protein) MAKKDEHLRKPEWLKIKLNTNENYTGLKKLMRENNLHTVCEEAKCPNIHECWAVRRTATFMILGSVCTRACRFCAVKTGLPTELDLQEPERVADSVALMNLKHAVITAVARDDQKDGGAGIFAETVRAIRRKSPFTTIEVLPSDMGGNYDNLKTLMDTRPDILNHNIETVRRLTPRVRARATYDRSLEFLRRAKEMQPDIPTKSSIMIGLGETKEEIIEVMDDLLANNVDIMAIGQYLQPTKKHLKVQKYYHPDEFAELKEIAMQKGFSHCEAGPLVRSSYHADEQVNEASKKRQAQA and give its recorded Km.
[out] 400 µM
